B1: Hairpin Ribozyme (parent)
chain: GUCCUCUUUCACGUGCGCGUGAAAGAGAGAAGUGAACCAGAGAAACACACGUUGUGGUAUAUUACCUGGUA

Variants of: B1
assay-method-text: self-cleavage, relative activity (ratio to wild type); higher = more cleavage; co-transcriptional
experimental-readout: self-cleavage

[
  {
    "variant-identifier": "C46U U58A",
    "self-cleavage": 0.0874
  },
  {
    "variant-identifier": "U14A G68C",
    "self-cleavage": 0.25
  },
  {
    "variant-identifier": "U8A G32A",
    "self-cleavage": 0.141
  },
  {
    "variant-identifier": "U58G U67C",
    "self-cleavage": 0.0792
  }
]

Would you mind giving self-cleavage for every variant in the list below?
1. A26U G34C
2. G68U G69U
3. A30G G68C
4. A36C C48A
5. A28C G29A
6. G15U C38G

1.51
0.183
0.132
0.142
0.199
0.149
